Test: Half life in rat at 1 mg/kg
Type: ADME, organism-based
Conditions: in vivo
VALUE_KIND: half-life (h)
Entry rule: numbers only, all in h.

State the recorded half-life for this entry: Clc1ccc(CNc2ccnc(N3CCC4(CCN(CC5CCCN5)C4)CC3)n2)c(Cl)c1 (racemic) 4

###

Experiment: Kinetic solubility of the compound by chemiluminescent nitrogen detection assay
Format: physicochemical
Settings: read-out: Kinetic_solubility
# Lookup of reported solubility kinetic keyed by entry
Number only, in µg/mL; omit the unit.

{"MOLECULE": "O=C([C@@H]1CCCCN1)N1CCC2(CCN(c3nccc(NCc4ccc(Cl)cc4Cl)n3)CC2)C1", "solubility kinetic (µg/mL)": 170}
{"MOLECULE": "O=C([C@@H]1CCCN1)N1CCC2(CCN(c3nccc(NCc4ccc(Cl)cc4Cl)n3)CC2)C1", "solubility kinetic (µg/mL)": 165}
{"MOLECULE": "CNCC(=O)N1CCC2(CCN(c3nccc(NCc4ccc(Cl)cc4Cl)n3)CC2)C1.O=C(O)C(F)(F)F.O=C(O)C(F)(F)F", "solubility kinetic (µg/mL)": 138}
{"MOLECULE": "Clc1ccc(CNc2ccnc(N3CCC4(CCN(C[C@@H]5CCCN5)C4)CC3)n2)c(Cl)c1", "solubility kinetic (µg/mL)": 56}
{"MOLECULE": "O=C(c1ccccn1)N1CCC2(CCN(c3nccc(NCc4ccc(Cl)cc4Cl)n3)CC2)C1", "solubility kinetic (µg/mL)": 17}

State the recorded solubility kinetic for this entry: O=C(C1CCCN1)N1CCC2(CCN(c3nccc(NCc4ccc(Cl)cc4Cl)n3)CC2)C1 (racemic) 79

Record request: solubility kinetic value, item O=C(C1COCCN1)N1CCC2(CCN(c3nccc(NCc4ccc(Cl)cc4Cl)n3)CC2)C1 (racemic) 233

Tell me the measured solubility kinetic of Clc1ccc(CNc2ccnc(N3CCC4(CCN(CC5CCCCN5)C4)CC3)n2)c(Cl)c1 (racemic) , please. 182
